Test system: MT2
Assay: Concentration required to reduce cell viability of MT2 cells by 50%
Assay type: functional
Conditions: Homo sapiens
recordedEndpoint: CC50

Reported CC50 for MT2, given Cc1cn([C@H]2C[C@H](N=[N+]=[N-])[C@@H](COC(=O)CC3(C)CC(C)(O)CO3)O2)c(=O)[nH]c1=O (stereo in doubt; form 2) ?
> 1000 µM

Reported CC50 for MT2, given CC1=CN([C@H]2C[C@H](O)[C@@H](COC(=O)C[C@@]3(C)C[C@@](C)(O)CO3)O2)C(=O)NC1 ?
> 1000 µM

###

Test system: JM1
Assay: Anti-HIV activity against HIV-1 infected JM cell lines
Assay type: functional, cell-based
Details: jm1
recordedEndpoint: pEC50
As a rule, pEC50 stands for the negative log10 of the concentration, concentration in M.

Cc1cn([C@H]2C[C@H](O[Si](C)(C)C(C)(C)C)[C@@H](COC(=O)CC3(C)CC(C)(O)CO3)O2)c(=O)[nH]c1=O (stereo in doubt; form 2)
5.00
Cc1cn([C@H]2C[C@H](N=[N+]=[N-])[C@@H](COC(=O)CC3(C)CC(C)(O)CO3)O2)c(=O)[nH]c1=O (stereo in doubt; form 1)
4.00

Reported pEC50 for JM1, given Cc1cn([C@H]2C=C[C@@H](CNC(=O)CC3(C)CC(C)(O)CO3)O2)c(=O)[nH]c1=O (stereo in doubt; form 2) ?
3.30

Reported pEC50 for JM1, given Cc1cn([C@H]2C[C@H](N=[N+]=[N-])[C@@H](COC(=O)CC3(C)CC(C)(O)CO3)O2)c(=O)[nH]c1=O (stereo in doubt; form 2) ?
3.40

Reported pEC50 for JM1, given Cc1cn([C@H]2C=C[C@@H](CNC(=O)CC3(C)CC(C)(O)CO3)O2)c(=O)[nH]c1=O (stereo in doubt; form 1) ?
3.70

Reported pEC50 for JM1, given Cc1cn([C@H]2C[C@H](N=[N+]=[N-])[C@@H](COC(=O)CC3(C)CC(C)(O)CO3)O2)c(=O)[nH]c1=O (stereo in doubt; 13) ?
3.70
